test system: MOLM14; assay: cell viability relative to vehicle control; higher = less cytotoxic; conditions: 10 µM; SRSF2 genotype: SRSF2 P95H/wt;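 also: after 48 h exposure read by CellTiter-Glo luminescence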
Structures can show the parent of a compound that is named as a salt.

- COMPOUND: "O=C1C[C@@H](c2ccc(O)cc2)Oc2cc(O)cc(O)c21 [Naringenin]"
  cell viability: "111%"
- COMPOUND: "CC(C)NC[C@H](O)COc1ccc(CCOCC2CC2)cc1 [Levobetaxolol HCl]"
  cell viability: "89.1%"
- COMPOUND: "O=C(O)COc1nn(Cc2ccccc2)c2ccccc12 [Bendazac]"
  cell viability: "103%"
- COMPOUND: "CN(C)CC(c1ccc(O)cc1)C1(O)CCCCC1 (centres undefined) [Desvenlafaxine Succinate]"
  cell viability: "98.4%"
- COMPOUND: "CC(=O)O[C@]1(C(C)=O)CC[C@H]2[C@@H]3C=C(C)C4=CC(=O)CC[C@]4(C)[C@H]3CC[C@@]21C [Megestrol Acetate]"
  cell viability: "84.8%"
- COMPOUND: "CN(C)c1cccc(-c2c3c(=O)n(-c4ccccc4Cl)[nH]c3cc(=O)n2C)c1"
  cell viability: "104%"
- COMPOUND: "CN(C)CCc1c[nH]c2ccc(C[C@H]3COC(=O)N3)cc12 [Zolmitriptan (Zomig)]"
  cell viability: "99.4%"
- COMPOUND: "CN(CCOc1ccc(CC2SC(=O)NC2=O)cc1)c1ccccn1 (centres undefined) [Rosiglitazone maleate]"
  cell viability: "101%"
- COMPOUND: "CCN(CC)C(=O)/C(C#N)=C/c1cc(O)c(O)c([N+](=O)[O-])c1 [Entacapone]"
  cell viability: "102%"

Origin of measurements: the supplement of paper PMC10981050
